# target_or_test_system: UniProt:P35869
# Sequence (P35869 11-848): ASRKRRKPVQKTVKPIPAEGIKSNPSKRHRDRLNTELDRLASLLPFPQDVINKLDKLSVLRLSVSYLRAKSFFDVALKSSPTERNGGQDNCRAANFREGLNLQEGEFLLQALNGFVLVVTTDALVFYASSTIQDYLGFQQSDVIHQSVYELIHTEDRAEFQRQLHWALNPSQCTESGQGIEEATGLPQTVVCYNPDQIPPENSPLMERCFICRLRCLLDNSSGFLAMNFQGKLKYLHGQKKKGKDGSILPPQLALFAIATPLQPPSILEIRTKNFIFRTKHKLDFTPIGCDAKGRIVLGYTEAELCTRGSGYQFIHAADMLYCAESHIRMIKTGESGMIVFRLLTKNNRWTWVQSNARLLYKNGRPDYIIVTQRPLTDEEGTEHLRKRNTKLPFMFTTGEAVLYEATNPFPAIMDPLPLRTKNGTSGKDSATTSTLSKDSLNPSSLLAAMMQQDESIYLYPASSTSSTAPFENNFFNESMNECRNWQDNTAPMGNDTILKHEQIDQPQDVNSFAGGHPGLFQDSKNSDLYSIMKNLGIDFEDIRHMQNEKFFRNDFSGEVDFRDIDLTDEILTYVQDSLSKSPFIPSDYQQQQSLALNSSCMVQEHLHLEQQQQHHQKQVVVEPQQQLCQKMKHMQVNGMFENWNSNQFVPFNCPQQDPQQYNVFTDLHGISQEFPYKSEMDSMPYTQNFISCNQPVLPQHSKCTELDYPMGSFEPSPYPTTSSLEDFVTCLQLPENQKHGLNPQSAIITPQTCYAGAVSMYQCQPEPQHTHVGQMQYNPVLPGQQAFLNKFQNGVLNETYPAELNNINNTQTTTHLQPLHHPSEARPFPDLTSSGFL
# protocol_description: Human AHR agonist luciferase assay (CYP1A1 promoter Nano-luc reporter in HepG2 cells);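 note: stably transfected HepG2 clone, DRE-containing 1200 bp promoter region driving Nano-luc, treated 4 to 24 h with 11-point dilutions in tryptophan-free medium, medium-only wells as baseline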
Counter-ions that a name gives are not always drawn.
readout_type: EC50

Solved cases below.
[
  {
    "compound": "CN1CCC(c2csc(C(=O)c3c[nH]c4ccc(F)cc34)n2)C1=O (stereo not drawn) [Compound 7-4]",
    "target_or_test_system": "UniProt:P35869",
    "EC50": "< 500 nM"
  },
  {
    "compound": "CC(C)[C@H](N)C(=O)n1cc(C(=O)c2nc(C3CCOC3=O)cs2)c2ccccc21 (stereo partly drawn) [Compound 9, hydrochloride]",
    "target_or_test_system": "UniProt:P35869",
    "EC50": "500 to 2000 nM"
  },
  {
    "compound": "O=C(c1nc(C2CCOC2=O)cs1)c1cn(CO)c2ccccc12 (stereo not drawn) [Compound 10]",
    "target_or_test_system": "UniProt:P35869",
    "EC50": "500 to 2000 nM"
  }
]

Count: 2. Required value per item: EC50.
1. CN1CCC(c2csc(C(=O)c3c[nH]c4cc5c(cc34)OCO5)n2)C1=O (stereo not drawn) [Compound 7-6]
2. COc1ccc2[nH]cc(C(=O)c3nc(C4CC(C)OC4=O)cs3)c2c1 (stereo not drawn) [Compound 8-5]

Response:
1. < 500 nM
2. < 500 nM

Entry source: patent US20260226041A1
